// data source = paper PMC4689404

I'd appreciate it if you could supply IC50 values for the items below.
# Tested on: HCC4018
# Experimental Protocol: MTS viability assay
# Assay type: cell-based, human
# Reported Conditions: Patient B cancer line; MTS, 4 days; read-out: Antiproliferative activity IC50, HCC4018
Numeric answer only, unit nM assumed.

For the compound CC(/C=C/C(=O)NO)=C\[C@@H](C)C(=O)c1ccc(N(C)C)cc1 [TSA, trichostatin A, reference compound] , give its reported IC50.
23

Return reported IC50. Input compound: C/C=C1\NC(=O)[C@H]2CSSCC/C=C/[C@H](CC(=O)N[C@H](C(C)C)C(=O)N2)OC(=O)[C@H](C(C)C)NC1=O [Depsi., Depsipeptide, reference compound]
4.2
